# system under test: BRAF^V600E (Homo sapiens, UniProt P15056, V600E)
# Construct: purchased Life Technologies
# Sequence (P15056 whole entry V600E): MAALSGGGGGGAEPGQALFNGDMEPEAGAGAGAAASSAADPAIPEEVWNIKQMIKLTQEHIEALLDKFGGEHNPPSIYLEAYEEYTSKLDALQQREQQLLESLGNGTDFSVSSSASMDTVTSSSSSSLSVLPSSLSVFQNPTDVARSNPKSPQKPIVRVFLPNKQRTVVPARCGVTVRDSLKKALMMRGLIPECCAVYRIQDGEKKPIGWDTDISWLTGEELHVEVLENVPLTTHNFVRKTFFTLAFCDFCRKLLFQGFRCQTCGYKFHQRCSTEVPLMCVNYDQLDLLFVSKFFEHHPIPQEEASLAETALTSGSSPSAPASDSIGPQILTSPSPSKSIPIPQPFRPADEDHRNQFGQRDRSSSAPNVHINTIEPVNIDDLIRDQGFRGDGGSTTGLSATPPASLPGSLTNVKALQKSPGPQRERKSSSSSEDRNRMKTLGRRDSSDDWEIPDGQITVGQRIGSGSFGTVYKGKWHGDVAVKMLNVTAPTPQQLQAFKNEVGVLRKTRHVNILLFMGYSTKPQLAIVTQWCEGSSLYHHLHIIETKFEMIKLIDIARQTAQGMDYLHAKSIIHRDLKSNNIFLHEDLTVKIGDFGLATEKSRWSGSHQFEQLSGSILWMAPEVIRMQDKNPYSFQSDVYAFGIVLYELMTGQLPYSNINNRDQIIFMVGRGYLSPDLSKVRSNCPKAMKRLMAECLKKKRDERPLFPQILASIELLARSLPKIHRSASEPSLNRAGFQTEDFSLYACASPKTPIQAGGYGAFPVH
# assay overview: BRAF^V600E kinase inhibition, Z'-LYTE
# Format: biochemical
# measurement parameters: 1000 nM; average of two independent experiments
# Procedure: The experiments were performed according to the instructions of the manufacturer, and single point concentration testing with two independent data points (n = 2). […] The IC50 values were calculated from the inhibition curves from two separate experiments.
result type: inhibition at 1 µM (%)
Could you give me the number in %? Just the number is fine.

Return reported inhibition at 1 µM. Input molecule: O=C(Nc1ccc(Cl)cc1)Nc1ccc(Oc2ncnc3[nH]ncc23)cc1
51

Return reported inhibition at 1 µM. Input molecule: Cc1ccc(NC(=O)Nc2ccc(Oc3ncnc4[nH]ncc34)cc2)cc1C
89

Return reported inhibition at 1 µM. Input molecule: O=C(Nc1ccc(Oc2ncnc3[nH]ncc23)cc1)Nc1cc(F)cc(C(F)(F)F)c1
67

Return reported inhibition at 1 µM. Input molecule: Cc1cccc(NC(=O)Nc2ccc(Oc3ncnc4[nH]ncc34)cc2)c1
46

Return reported inhibition at 1 µM. Input molecule: Cn1ncc2c(Oc3ccc(NC(=O)Nc4cccc(Cl)c4)cc3)ncnc21
93

Return reported inhibition at 1 µM. Input molecule: COC(=O)c1cccc(NC(=O)Nc2ccc(Oc3ncnc4[nH]ncc34)cc2)c1
32

Return reported inhibition at 1 µM. Input molecule: Cc1ccc(Cl)c(NC(=O)Nc2ccc(Oc3ncnc4[nH]ncc34)cc2)c1
37

Return reported inhibition at 1 µM. Input molecule: O=C(Nc1ccc(Oc2ncnc3[nH]ncc23)cc1)Nc1ccc(Cl)c(C(F)(F)F)c1
90

Return reported inhibition at 1 µM. Input molecule: O=C(Nc1ccc(Oc2ncnc3[nH]ncc23)cc1)Nc1cccc([N+](=O)[O-])c1
62

Return reported inhibition at 1 µM. Input molecule: O=C(Nc1ccc(Oc2ncnc3[nH]ncc23)cc1)Nc1ccc(Cl)c(Cl)c1
83

Return reported inhibition at 1 µM. Input molecule: O=C(Nc1ccccc1)Nc1ccc(Oc2ncnc3[nH]ncc23)cc1
1

Return reported inhibition at 1 µM. Input molecule: N#Cc1cccc(NC(=O)Nc2ccc(Oc3ncnc4[nH]ncc34)cc2)c1
48

Return reported inhibition at 1 µM. Input molecule: Cc1ccc([N+](=O)[O-])c(NC(=O)Nc2ccc(Oc3ncnc4[nH]ncc34)cc2)c1
22

Return reported inhibition at 1 µM. Input molecule: CCc1cccc(NC(=O)Nc2ccc(Oc3ncnc4[nH]ncc34)cc2)c1
69

Return reported inhibition at 1 µM. Input molecule: O=C(Nc1ccc(Oc2ncnc3[nH]ncc23)cc1)Nc1cccc(Cl)c1
54

Return reported inhibition at 1 µM. Input molecule: O=C(Nc1ccc(Oc2ncnc3[nH]ncc23)cc1)Nc1cccc(Br)c1
71

Return reported inhibition at 1 µM. Input molecule: Cn1ncc2c(Oc3ccc(NC(=O)Nc4ccc(Cl)c(C(F)(F)F)c4)cc3)ncnc21
97
